system: 377384-186-R-J1-PDC complex spheroid viability; assay: Anticancer human tumor 377384-186-R-J1-PDC patient-derived pancreatic carcinoma cell line growth inhibition [CLK]; conditions: second compound 0.316 µM; first compound 3.16 µM; hits give low values
observable: viability, T/C (%)
Provide only the numeric value, understood in %.

The cases that follow already have their viability, T/C on record.
- compound: "C#Cc1c(F)ccc2cc(O)cc(-c3ncc4c(N5CC6CCC(C5)N6)nc(OCC56CCCN5CC(F)C6)nc4c3F)c12 (stereo not given) + CN1CCN(c2cc(C(=O)Nc3cc4cc(-c5cnn(C)c5)ccc4cn3)ccn2)CC1"
  readout units: "%"
  viability, T/C: 1.33
- compound: "Nc1ccccc1NC(=O)c1ccc(CNC(=O)OCc2cccnc2)cc1 + CN1CCN(c2cc(C(=O)Nc3cc4cc(-c5cnn(C)c5)ccc4cn3)ccn2)CC1"
  readout units: "%"
  viability, T/C: 3.98
- compound: "CC(CO)NC(=O)c1cc(-c2ccc(Cl)cc2)nn(-c2cnn(C)c2)c1=O (stereo not given) + CN1CCN(c2cc(C(=O)Nc3cc4cc(-c5cnn(C)c5)ccc4cn3)ccn2)CC1"
  readout units: "%"
  viability, T/C: 31.9

Q: Specify reported viability, T/C for the compound shown: COC1C=CCC(C)C(C)S(=O)(=O)NC(=O)c2ccc3c(c2)N(CC2CCC21)CC1(CCCc2cc(Cl)ccc21)CO3 (stereo not given) + CN1CCN(c2cc(C(=O)Nc3cc4cc(-c5cnn(C)c5)ccc4cn3)ccn2)CC1
Ans: 20.5

Q: Specify reported viability, T/C for the compound shown: CC(Nc1ccc2c(c1)OCCn1cc(N3C(=O)OCC3C(F)F)nc1-2)C(N)=O (stereo not given) + CN1CCN(c2cc(C(=O)Nc3cc4cc(-c5cnn(C)c5)ccc4cn3)ccn2)CC1
Ans: 18.3

====

test system: 377384-186-R-J1-PDC complex spheroid viability; assay: Anticancer human tumor 377384-186-R-J1-PDC cell line growth inhibition [CLK]; details: second compound 0.1 µM; first compound 3.16 µM; active means viability on the fitted dose curve at most 10% of control; inactive means the rest;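 also: luminescence signal used as a stand-in for viable cells; spheroids exposed to agents for 7 days before reading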
Log the outcome using a class from Y for active, N for inactive

- compound: "C=CC(=O)N1CCN(c2nc(=O)n(-c3c(C)ccnc3C(C)C)c3nc(-c4c(O)cccc4F)c(F)cc23)C(C)C1 (configuration not stated) + CNC(=O)c1ccc(Nc2nc(OC3CCCC3)c3c(-c4ccc5nc(C)oc5c4)c[nH]c3n2)c(OC)c1"
  tested target: "377384-186-R-J1-PDC complex spheroid viability"
  class: "N"

Q: Returns: the outcome recorded for CC(Nc1ccc2c(c1)OCCn1cc(N3C(=O)OCC3C(F)F)nc1-2)C(N)=O (configuration not stated) + CN1CCN(c2cc(C(=O)Nc3cc4cc(-c5cnn(C)c5)ccc4cn3)ccn2)CC1 in this assay.
Ans: N

Q: Returns: the outcome recorded for C=C(F)C(=O)N1CCN(c2nc(OCC3CCCN3C)nc3c2CCN(c2cccc4cccc(Cl)c24)C3)CC1CC#N (configuration not stated) + CN1CCN(c2cc(C(=O)Nc3cc4cc(-c5cnn(C)c5)ccc4cn3)ccn2)CC1 in this assay.
Ans: N

Q: Returns: the outcome recorded for CC(=O)O[C@H]1C(=O)[C@@]2(C)[C@H]([C@H](OC(=O)c3ccccc3)[C@]3(O)C[C@H](OC(=O)[C@H](O)[C@@H](NC(=O)c4ccccc4)c4ccccc4)C(C)=C1C3(C)C)[C@]1(OC(C)=O)CO[C@@H]1C[C@@H]2O + CN1CCN(c2cc(C(=O)Nc3cc4cc(-c5cnn(C)c5)ccc4cn3)ccn2)CC1 in this assay.
Ans: N

Q: Returns: the outcome recorded for CC1(C)CCC(CN2CCN(c3ccc(C(=O)NS(=O)(=O)c4ccc(NCC5CCOCC5)c([N+](=O)[O-])c4)c(Oc4cnc5[nH]ccc5c4)c3)CC2)=C(c2ccc(Cl)cc2)C1 + CN1CCN(c2cc(C(=O)Nc3cc4cc(-c5cnn(C)c5)ccc4cn3)ccn2)CC1 in this assay.
Ans: N

Q: Returns: the outcome recorded for CC1COCCN1c1cc(C2(S(C)(=N)=O)CC2)nc(-c2ccnc3[nH]ccc23)n1 (configuration not stated) + CNC(=O)c1ccc(Nc2nc(OC3CCCC3)c3c(-c4ccc5nc(C)oc5c4)c[nH]c3n2)c(OC)c1 in this assay.
Ans: N

Q: Returns: the outcome recorded for Nc1ccn(C2OC(CO)C(O)C2(F)F)c(=O)n1 (configuration not stated) + CN1CCN(c2cc(C(=O)Nc3cc4cc(-c5cnn(C)c5)ccc4cn3)ccn2)CC1 in this assay.
Ans: Y

====

Quick reference for viability, T/C among some molecules
tested on: 377384-186-R-J1-PDC complex spheroid viability; experiment: Anticancer human tumor 377384-186-R-J1-PDC cell line growth inhibition [CLK]; conditions: second compound 3.16 µM; first compound 10 µM; hits give low values;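 also: luminescence signal used as a stand-in for viable cells; spheroids exposed to agents for 7 days before reading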
Provide only the numeric value, understood in %.

- molecule: "Nc1ccccc1NC(=O)c1ccc(CNC(=O)OCc2cccnc2)cc1 + CN1CCN(c2cc(C(=O)Nc3cc4cc(-c5cnn(C)c5)ccc4cn3)ccn2)CC1"
  tested target: "377384-186-R-J1-PDC complex spheroid viability"
  viability, T/C / %: 0.62
- molecule: "COc1cccc2c1C(=O)c1c(O)c3c(c(O)c1C2=O)CC(O)(C(=O)CO)CC3OC1CC(N)C(O)C(C)O1 (stereo not given) + CN1CCN(c2cc(C(=O)Nc3cc4cc(-c5cnn(C)c5)ccc4cn3)ccn2)CC1"
  tested target: "377384-186-R-J1-PDC complex spheroid viability"
  viability, T/C / %: 9.38
- molecule: "COc1ccc([C@@H](O)c2cc(-c3ncnc4cc(N5CCOCC5)ccc34)c(F)cc2Cl)nn1 + CN1CCN(c2cc(C(=O)Nc3cc4cc(-c5cnn(C)c5)ccc4cn3)ccn2)CC1"
  tested target: "377384-186-R-J1-PDC complex spheroid viability"
  viability, T/C / %: 0.98
- molecule: "COc1ccc([C@@H](O)c2cc(-c3ncnc4cc(N5CCOCC5)ccc34)c(F)cc2Cl)nn1 + CNC(=O)c1ccc(Nc2nc(OC3CCCC3)c3c(-c4ccc5nc(C)oc5c4)c[nH]c3n2)c(OC)c1"
  tested target: "377384-186-R-J1-PDC complex spheroid viability"
  viability, T/C / %: 15.5

In the following, a different molecule is considered.
Q: Tell me its viability, T/C on 377384-186-R-J1-PDC complex spheroid viability: CC1(C)CCC(CN2CCN(c3ccc(C(=O)NS(=O)(=O)c4ccc(NCC5CCOCC5)c([N+](=O)[O-])c4)c(Oc4cnc5[nH]ccc5c4)c3)CC2)=C(c2ccc(Cl)cc2)C1 + CNC(=O)c1ccc(Nc2nc(OC3CCCC3)c3c(-c4ccc5nc(C)oc5c4)c[nH]c3n2)c(OC)c1
Ans: 20.9

====

system: 377384-186-R-J1-PDC complex spheroid viability; assay: Anticancer human tumor 377384-186-R-J1-PDC cell line growth inhibition [CLK]; conditions: second compound 0.316 µM; first compound 1 µM; active means viability on the fitted dose curve at most 10% of control; inactive means the rest;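 also: luminescence signal used as a stand-in for viable cells; spheroids exposed to agents for 7 days before reading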
Log the outcome using a class from 1 (active), -1 (inactive)

- compound: "C#Cc1c(F)ccc2cc(O)cc(-c3ncc4c(N5CC6CCC(C5)N6)nc(OCC56CCCN5CC(F)C6)nc4c3F)c12 (stereo unspecified) + CN1CCN(c2cc(C(=O)Nc3cc4cc(-c5cnn(C)c5)ccc4cn3)ccn2)CC1"
  class: 1
- compound: "Nc1ccn(C2OC(CO)C(O)C2(F)F)c(=O)n1 (stereo unspecified) + CNC(=O)c1ccc(Nc2nc(OC3CCCC3)c3c(-c4ccc5nc(C)oc5c4)c[nH]c3n2)c(OC)c1"
  class: 1
- compound: "COC1C=CCC(C)C(C)S(=O)(=O)NC(=O)c2ccc3c(c2)N(CC2CCC21)CC1(CCCc2cc(Cl)ccc21)CO3 (stereo unspecified) + CN1CCN(c2cc(C(=O)Nc3cc4cc(-c5cnn(C)c5)ccc4cn3)ccn2)CC1"
  class: -1
- compound: "CC(CO)NC(=O)c1cc(-c2ccc(Cl)cc2)nn(-c2cnn(C)c2)c1=O (stereo unspecified) + CN1CCN(c2cc(C(=O)Nc3cc4cc(-c5cnn(C)c5)ccc4cn3)ccn2)CC1"
  class: -1
- compound: "COc1ccc([C@@H](O)c2cc(-c3ncnc4cc(N5CCOCC5)ccc34)c(F)cc2Cl)nn1 + CNC(=O)c1ccc(Nc2nc(OC3CCCC3)c3c(-c4ccc5nc(C)oc5c4)c[nH]c3n2)c(OC)c1"
  class: -1
- compound: "C=C(F)C(=O)N1CCN(c2nc(OCC3CCCN3C)nc3c2CCN(c2cccc4cccc(Cl)c24)C3)CC1CC#N (stereo unspecified) + CN1CCN(c2cc(C(=O)Nc3cc4cc(-c5cnn(C)c5)ccc4cn3)ccn2)CC1"
  class: -1
- compound: "C=CC(=O)N1CCN(c2nc(=O)n(-c3c(C)ccnc3C(C)C)c3nc(-c4c(O)cccc4F)c(F)cc23)C(C)C1 (stereo unspecified) + CN1CCN(c2cc(C(=O)Nc3cc4cc(-c5cnn(C)c5)ccc4cn3)ccn2)CC1"
  class: -1
- compound: "COc1cccc2c1C(=O)c1c(O)c3c(c(O)c1C2=O)CC(O)(C(=O)CO)CC3OC1CC(N)C(O)C(C)O1 (stereo unspecified) + CN1CCN(c2cc(C(=O)Nc3cc4cc(-c5cnn(C)c5)ccc4cn3)ccn2)CC1"
  class: 1
- compound: "Nc1ccn(C2OC(CO)C(O)C2(F)F)c(=O)n1 (stereo unspecified) + CN1CCN(c2cc(C(=O)Nc3cc4cc(-c5cnn(C)c5)ccc4cn3)ccn2)CC1"
  class: 1
- compound: "O=c1[nH]cc(F)c(=O)[nH]1 + CNC(=O)c1ccc(Nc2nc(OC3CCCC3)c3c(-c4ccc5nc(C)oc5c4)c[nH]c3n2)c(OC)c1"
  class: -1

Q: Returns: the outcome recorded for CCc1c2c(nc3ccc(O)cc13)-c1cc3c(c(=O)n1C2)COC(=O)[C@]3(O)CC + CNC(=O)c1ccc(Nc2nc(OC3CCCC3)c3c(-c4ccc5nc(C)oc5c4)c[nH]c3n2)c(OC)c1 in this assay.
Ans: 1

Origin of the recorded values: PubChem BioAssay AID2060616
